# test system: T1, SHL from Populus trichocarpa (PtSHL), wild type (Populus trichocarpa)
# T1 chain: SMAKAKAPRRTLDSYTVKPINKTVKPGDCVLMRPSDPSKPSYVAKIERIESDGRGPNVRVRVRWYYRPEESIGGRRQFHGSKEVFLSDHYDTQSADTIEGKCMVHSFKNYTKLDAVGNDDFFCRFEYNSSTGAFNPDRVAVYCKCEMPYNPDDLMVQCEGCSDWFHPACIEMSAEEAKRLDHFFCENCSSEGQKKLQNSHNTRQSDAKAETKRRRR
# test name: ITC
No end group written: not given here. Me2 = dimethyl-lysine
observable: Kd (µM)
Numbers only, in µM.

LATKAARK(Me2)SAPATGGVKY [H3K27me2 peptide with an additional C-terminal tyrosine (ITC)] : 28.9

Report measured Kd; entry is LATKAARK(Me)SAPATGGVKY [H3K27me1 peptide with an additional C-terminal tyrosine (ITC)]
58.1

Reference source: paper PMC6013494
